- assayed_system: T1, human amylin receptor (human calcitonin receptor + human RAMP3) (human) (UniProt P30988)
- T1 sequence (looked up) 1: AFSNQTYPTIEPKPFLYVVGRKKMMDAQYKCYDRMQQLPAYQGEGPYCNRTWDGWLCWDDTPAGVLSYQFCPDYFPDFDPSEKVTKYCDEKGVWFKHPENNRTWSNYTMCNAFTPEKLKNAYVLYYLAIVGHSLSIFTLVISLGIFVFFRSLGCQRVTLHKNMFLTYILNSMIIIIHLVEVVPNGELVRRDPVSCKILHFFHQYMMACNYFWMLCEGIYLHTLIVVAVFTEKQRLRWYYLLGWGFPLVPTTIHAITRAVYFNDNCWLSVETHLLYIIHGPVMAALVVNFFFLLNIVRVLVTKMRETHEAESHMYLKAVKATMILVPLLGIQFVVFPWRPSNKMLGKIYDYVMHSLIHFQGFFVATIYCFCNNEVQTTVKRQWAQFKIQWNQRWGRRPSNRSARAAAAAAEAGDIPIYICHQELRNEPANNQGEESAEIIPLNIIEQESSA
- T1 sequence (looked up) 2: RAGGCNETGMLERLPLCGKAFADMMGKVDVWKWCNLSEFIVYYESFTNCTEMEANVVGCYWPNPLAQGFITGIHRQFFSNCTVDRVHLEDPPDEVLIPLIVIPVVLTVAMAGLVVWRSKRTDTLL
- assay_method_text: whole-cell competition vs 125I-rat amylin (Assay Va)
pIC50: −log10 of the molar value. Numbered stars: 1 amine (or outer) side, 2 acyl side, 3 side chain; on linkers, the order of the positions; unused ones are H or OH. Ends that are not written are not given here. * marks the point of attachment. C18 diacid = O=C(O)CCCCCCCCCCCCCCCCC(=O)*; γGlu = O=C(O)[C@H](CCC(=O)[*:2])N[*:1]; C14 diacid = O=C(O)CCCCCCCCCCCCC(=O)*
Parameter threshold = 8. Response is Fulfilled when pIC50 meets or exceeds it, else Not fulfilled.

Would you say EASELSTAALGRLSAELHELATLPRTETGPESP-OH [[C-terminal(-)]mimylin] shows pIC50 at minimum 8?
Not fulfilled

Please tell me: is the binder {C14 diacid-γGlu}-ASELSTAALGRLSAELHELATLPRTETGPESP-NH2 [[N-terminal(C14 diacid-gGlu), des1]mimylin] at or over 8 in terms of pIC50?
Fulfilled

Please indicate if the recorded pIC50 for {C18 diacid-γGlu}-ASELTTAVLGRLSAELHELATLPRTETGTGTP-NH2 [[N-terminal(C18 diacid-gGlu), des1, 6T, 9V, 30T, 31G, 32T]mimylin] meets or exceeds 8.
Fulfilled

Answer whether pIC50 of ASELTTAVLGRLSAELHELATLPRTETGTGTP-NH2 [[des1, 6T, 9V, 30T, 31G, 32T]mimylin] is greater than or equal to 8.
Not fulfilled

API: above_or_equal(metric=pIC50, cutoff=8) for item {C14 diacid}-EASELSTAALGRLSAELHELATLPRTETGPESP-NH2 [[N-terminal(C14 diacid)]mimylin]
Fulfilled

Please indicate if the recorded pIC50 for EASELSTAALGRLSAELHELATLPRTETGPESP-NH2 [mimylin] meets or exceeds 8.
Fulfilled
